Where these numbers come from: the supplement of paper PMC11246515

Assay: total protein half-life in vivo (active degradation + dilution); higher = more stable protein
Conditions: wild type E. coli NCM3722; growth: N-lim chemostat; doubling time 6 h
Collected total protein half-life in vivo values appear next to each entry.
assay-readout: total protein half-life in vivo (h)

# polymer-sequence, reported-measurement
records = [
    ("MTIWVDADACPNVIKEILYRAAERMQMPLVLVANQSLRVPPSRFIRTLRVAAGFDVADNEIVRQCEAGDLVITADIPLAAEAIEKGAAALNPRGERYTPATIRERLTMRDFMDTLRASGIQTGGPDSLSQRDRQAFAAELEKWWLEVQRSRG [P0A8D3]", 3.55),
    ("MMIRERIEEKLRAAFQPVFLEVVDESYRHNVPAGSESHFKVVLVSDRFTGERFLNRHRMIYSTLAEELSTTVHALALHTYTIKEWEGLQDTVFASPPCRGAGSIA [P0ABE2]", 1.99),
    ("MKLNIRAQTAQNQHNNSPIVLVHGLFGSLDNLGVLARDLVNDHNIIQVDMRNHGLSPRDPVMNYPAMAQDLVDTLDAQQIDKATFIGHSMGGKAVMALTALASDRIDKLVAIDIAPVDYHVRRHDEIFAAINAVSESDAQTRQQAAAIMRQHLNEEGVIQFLLKSFVDGEWRFNVPVLWDQYPHIVGWEKIPAWDHPALFIPGGNSPYVSEQYRDDLLAQFPQARAHVIAGAGHWVHAEKPDAVLRAIRRYLND", 5.02),
    ("MSSRNNPARVAIVMGSKSDWATMQFAAEIFEILNVPHHVEVVSAHRTPDKLFSFAESAEENGYQVIIAGAGGAAHLPGMIAAKTLVPVLGVPVQSAALSGVDSLYSIVQMPRGIPVGTLAIGKAGAANAALLAAQILATHDKELHQRLNDWRKAQTDEVLENPDPRGAA [P0AG18]", 4.67),
]

====

Assay: total protein half-life in vivo (active degradation + dilution); higher = more stable protein
Conditions: E. coli NCM3722 delta-clpP delta-lon delta-hslV; growth: N-lim chemostat; doubling time 6 h
Catalogue of total protein half-life in vivo values

# polymer-sequence, total protein half-life in vivo (h)
data = [
    ("MNLSTKQKQHLKGLAHPLKPVVLLGSNGLTEGVLAEIEQALEHHELIKVKIATEDRETKTLIVEAIVRETGACNVQVIGKTLVLYRPTKERKISLPR [P0AGK4]", 7),
    ("MKMIEVVAAIIERDGKILLAQRPAQSDQAGLWEFAGGKVEPDESQRQALVRELREELGIEATVGEYVASHQREVSGRIIHLHAWHVPDFHGTLQAHEHQALVWCSPEEALQYPLAPADIPLLEAFMALRAARPAD", 4.73),
    ("MAKNYYDITLALAGICQSARLVQQLAHQGHCDADALHVSLNSIIDMNPSSTLAVFGGSEANLRVGLETLLGVLNASSRQGLNAELTRYTLSLMVLERKLSSAKGALDTLGNRINGLQRQLEHFDLQSETLMSAMAAIYVDVISPLGPRIQVTGSPAVLQSPQVQAKVRATLLAGIRAAVLWHQVGGGRLQLMFSRNRLTTQAKQILAHLTPEL", 6.52),
]

====

Assay: total protein half-life in vivo (active degradation + dilution); higher = more stable protein
Conditions: wild type E. coli NCM3722; growth: P-lim chemostat; doubling time 12 h
assay-readout: total protein half-life in vivo (h)

# polymer-sequence, quantity-unit, reported-measurement
data = [
    ("MDQAGIIRDLLIWLEGHLDQPLSLDNVAAKAGYSKWHLQRMFKDVTGHAIGAYIRARRLSKSAVALRLTARPILDIALQYRFDSQQTFTRAFKKQFAQTPALYRRSPEWSAFGIRPPLRLGEFTMPEHKFVTLEDTPLIGVTQSYSCSLEQISDFRHEMRYQFWHDFLGNAPTIPPVLYGLNETRPSQDKDDEQEVFYTTALAQDQADGYVLTGHPVMLQGGEYVMFTYEGLGTGVQEFILTVYGTCMPMLNLTRRKGQDIERYYPAEDAKAGDRPINLRCELLIPIRR [P0ACI0]", "h", 11.8),
    ("MVDQAQDTLRPNNRLSDMQATMEQTQAFENRVLERLNAGKTVRSFLITAVELLTEAVNLLVLQVFRKDDYAVKYAVEPLLDGDGPLGDLSVRLKLIYGLGVINRQEYEDAELLMALREELNHDGNEYAFTDDEILGPFGELHCVAALPPPPQFEPADSSLYAMQIQRYQQAVRSTMVLSLTELISKISLKKAFQK [P0AF10]", "h", 12.2),
]

====

Experiment: total protein half-life in vivo (active degradation + dilution); higher = more stable protein
Conditions: E. coli NCM3722 delta-hslV; growth: N-lim chemostat; doubling time 6 h
Reported total protein half-life in vivo values are given for each entry in this list.
assay-readout: total protein half-life in vivo

# polymer-sequence, reported-measurement
data = [
    ("MLAFCRSSLKSKKYIIILLALAAIAGLGTHAAWSSNGLPRIDNKTLARLAQQHPVVVLFRHAERCDRSTNQCLSDKTGITVKGTQDARELGNAFSADIPDFDLYSSNTVRTIQSATWFSAGKKLTVDKRLLQCGNEIYSAIKDLQSKAPDKNIVIFTHNHCLTYIAKDKRDATFKPDYLDGLVMHVEKGKVYLDGEFVNH", "4.99 h"),
    ("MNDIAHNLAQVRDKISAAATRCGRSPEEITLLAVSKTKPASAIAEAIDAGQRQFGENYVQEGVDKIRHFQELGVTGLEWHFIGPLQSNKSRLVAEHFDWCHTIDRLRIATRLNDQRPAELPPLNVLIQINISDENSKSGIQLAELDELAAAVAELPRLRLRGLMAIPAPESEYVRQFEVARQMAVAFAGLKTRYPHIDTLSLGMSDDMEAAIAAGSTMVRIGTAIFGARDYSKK", "4.27 h"),
    ("MMELMVVHPHIFWLSLGGLLLAAEMLGGNGYLLWSGVAAVITGLVVWLVPLGWEWQGVMFAILTLLAAWLWWKWLSRRVREQKHSDSHLNQRGQQLIGRRFVLESPLVNGRGHMRVGDSSWPVSASEDLGAGTHVEVIAIEGITLHIRAVSS [P0AAS3]", "5.57 h"),
    ("MRTQWPSPAKLNLFLYITGQRADGYHTLQTLFQFLDYGDTISIELRDDGDIRLLTPVEGVEHEDNLIVRAARLLMKTAADSGRLPTGSGANISIDKRLPMGGGLGGGSSNAATVLVALNHLWQCGLSMDELAEMGLTLGADVPVFVRGHAAFAEGVGEILTPVDPPEKWYLVAHPGVSIPTPVIFKDPELPRNTPKRSIETLLKCEFSNDCEVIARKRFREVDAVLSWLLEYAPSRLTGTGACVFAEFDTESEARQVLEQAPEWLNGFVAKGANLSPLHRAML", "4.05 h"),
    ("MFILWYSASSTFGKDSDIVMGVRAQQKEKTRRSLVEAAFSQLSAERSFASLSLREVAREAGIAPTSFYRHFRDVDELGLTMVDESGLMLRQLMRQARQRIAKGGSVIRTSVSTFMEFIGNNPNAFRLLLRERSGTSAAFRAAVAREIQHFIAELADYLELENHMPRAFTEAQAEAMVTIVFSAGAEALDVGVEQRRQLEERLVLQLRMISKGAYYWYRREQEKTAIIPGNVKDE [P0ACU5]", "6.25 h"),
    ("MAISSRNTLLAALAFIAFQAQAVNVTVAYQTSAEPAKVAQADNTFAKESGATVDWRKFDSGASIVRALASGDVQIGNLGSSPLAVAASQQVPIEVFLLASKLGNSEALVVKKTISKPEDLIGKRIAVPFISTTHYSLLAALKHWGIKPGQVEIVNLQPPAIIAAWQRGDIDGAYVWAPAVNALEKDGKVLTDSEQVGQWGAPTLDVWVVRKDFAEKHPEVVKAFAKSAIDAQQPYIANPDVWLKQPENISKLARLSGVPEGDVPGLVKGNTYLTPQQQTAELTGPVNKAIIDTAQFLKEQGKVPAVANDYSQYVTSRFVQ", "5.96 h"),
    ("MPPRRYNPDTRRDELLERINLDIPGAVAQALREDLGGTVDANNDITAKLLPENSRSHATVITRENGVFCGKRWVEEVFIQLAGDDVTIIWHVDDGDVINANQSLFELEGPSRVLLTGERTALNFVQTLSGVASKVRHYVELLEGTNTQLLDTRKTLPGLRSALKYAVLCGGGANHRLGLSDAFLIKENHIIASGSVRQAVEKASWLHPDAPVEVEVENLEELDEALKAGADIIMLDNFETEQMREAVKRTNGKALLEVSGNVTDKTLREFAETGVDFISVGALTKHVQALDLSMRFR", "4.1 h"),
    ("MMMGEVQSLPSAGLHPALQDALTLALAARPQEKAPGRYELQGDNIFMNVMTFNTQSPVEKKAELHEQYIDIQLLLNGEERILFGMAGTARQCEEFHHEDDYQLCSTIDNEQAIILKPGMFAVFMPGEPHKPGCVVGEPGEIKKVVVKVKADLMA", "4.79 h"),
    ("MSEQLTDQVLVERVQKGDQKAFNLLVVRYQHKVASLVSRYVPSGDVPDVVQEAFIKAYRALDSFRGDSAFYTWLYRIAVNTAKNYLVAQGRRPPSSDVDAIEAENFESGGALKEISNPENLMLSEELRQIVFRTIESLPEDLRMAITLRELDGLSYEEIAAIMDCPVGTVRSRIFRAREAIDNKVQPLIRR [P0AGB6]", "6.86 h"),
    ("MASQLTDAFARKFYYLRLSITDVCNFRCTYCLPDGYKPSGVTNKGFLTVDEIRRVTRAFARLGTEKVRLTGGEPSLRRDFTDIIAAVRENDAIRQIAVTTNGYRLERDVASWRDAGLTGINVSVDSLDARQFHAITGQDKFNQVMAGIDAAFEAGFEKVKVNTVLMRDVNHHQLDTFLNWIQHRPIQLRFIELMETGEGSELFRKHHISGQVLRDELLRRGWIHQLRQRSDGPAQVFCHPDYAGEIGLIMPYEKDFCATCNRLRVSSIGKLHLCLFGEGGVNLRDLLEDDTQQQALEARISAALREKKQTHFLHQNNTGITQNLSYIGG", "0.963 h"),
    ("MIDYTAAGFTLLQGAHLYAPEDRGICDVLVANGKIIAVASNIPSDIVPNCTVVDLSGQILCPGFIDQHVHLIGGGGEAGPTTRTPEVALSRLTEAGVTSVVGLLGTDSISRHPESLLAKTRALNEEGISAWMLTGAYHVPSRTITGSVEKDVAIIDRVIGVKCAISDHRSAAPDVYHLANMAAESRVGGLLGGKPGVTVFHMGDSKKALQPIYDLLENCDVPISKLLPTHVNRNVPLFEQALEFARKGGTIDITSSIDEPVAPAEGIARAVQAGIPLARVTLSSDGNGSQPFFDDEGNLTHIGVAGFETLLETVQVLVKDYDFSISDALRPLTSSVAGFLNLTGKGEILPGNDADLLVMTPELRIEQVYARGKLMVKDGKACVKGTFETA", "5.5 h"),
    ("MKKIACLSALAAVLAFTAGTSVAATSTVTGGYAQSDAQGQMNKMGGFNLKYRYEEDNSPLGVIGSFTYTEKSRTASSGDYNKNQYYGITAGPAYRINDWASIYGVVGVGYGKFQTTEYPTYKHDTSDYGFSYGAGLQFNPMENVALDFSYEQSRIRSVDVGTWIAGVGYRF [P0A917]", "6.51 h"),
]
